Source listed as patent US20180360782A1.

# Tested on: MDA-MB-231 and HCT-116 cell lines
# test_summary: Growth inhibition screening assay (In Cell IC50)
# Type: cell-based, human
# stated_conditions: 3 days with compound
Square brackets hold non-standard residues; d marks the D form. Peptide text beside a SMILES is read from it. ξ: configuration not given here. ξY = NC(Cc1ccc(O)cc1)C(=O)O; Sar = CNCC(=O)O
measurement_kind: In Cell IC50 (μM)

Exam item: What value of measured In Cell IC50 (μM) is listed for CCCCCCCCCCCCCCCC(=O)N[C@@H](CCCCN)C(=O)N[C@@H](CCCCN)C(=O)OC ?
Marked response: ne

Exam item: Lookup CCC(C)(C)c1ccc(OCCCCNC(=O)c2cc(Oc3ccc([N+](=O)[O-])cc3)c3ccccc3c2O)c(C(C)(C)CC)c1
Marked response: ne^b

Exam item: And what about the molecule CCCCCCCCCCCCCCNC(=O)[C@@H](N)CCN ?
Marked response: ne

Exam item: Please do the same for CCOC(=O)C(NC(=O)CN[C@H]1CCCc2sccc21)C(=O)OCC as well.
Marked response: ne^b

Exam item: # iterate: CCCOc1ccc(C(=O)OCCN(CC)CC)cc1NS(=O)(=O)/C=C/c1ccccc1
Marked response: ne^b

Others:
Exam item: May I ask what In Cell IC50 (μM) has been recorded for CNCC(=O)N[C@@H](CCCNC(=N)N)C(=O)N[C@H](C(=O)NC(Cc1ccc(O)cc1)C(=O)N[C@H](C(=O)N[C@@H](Cc1cnc[nH]1)C(=O)O)C(C)C)C(C)C (some centres unmarked) [compound 9] (H-[Sar]RV[ξY]VH-OH) ?
Marked response: non-toxic

Exam item: Cool, now CCOC(=O)C[C@@H](CC(=O)NCCN[C@H](C)c1ccc(O)c(C(=O)OC)c1)OC(C)=O
Marked response: ne^b

Exam item: Would you mind doing CC(NCCCCCO)c1cc(OCc2ccccc2)cc(OCc2ccccc2)c1 (centres unmarked) as well?
Marked response: non-toxic
